Test: survival rescue of mitochondrial mutant cells in low glucose, primary screen, MELAS cybrids, Rieske KO mouse fibroblasts, CellTiter-Glo (AID 1508586);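 also: z relative to plate mean and SD of compound and empty wells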
Settings: Rieske KO mouse fibroblast survival, CellTiter-Glo 72 h
Non-standard residues stand in square brackets, D forms with d. Residues, ends and D or L forms follow the SMILES beside them. pGlu = O=C1CC[C@@H](C(=O)O)N1; Thz = O=C(O)[C@@H]1CSCN1
valueKind: z-score
Output: the number by itself.

Answered cases to consult:
| compound | z-score |
| --- | --- |
| CC1CC(OC(=O)C(O)c2ccccc2)CC(C)(C)C1 (stereo unspecified) | -0.184 |
| O=[N+]([O-])O[C@@H]1CO[C@H]2[C@@H]1OC[C@@H]2O | 0.0347 |
| O=C1CC[C@@H](C(=O)N2CSC[C@H]2C(=O)O)N1 ([pGlu]-[Thz]-OH) | -0.48 |
| CC[C@H](NC(C)C)[C@H](O)c1ccc(O)c2[nH]c(=O)ccc12 | -0.0411 |
| Nc1nc(Cl)nc2c1ncn2[C@H]1C[C@H](O)[C@@H](CO)O1 | 3.04 |

z-score for CC(=O)c1ccc(S(=O)(=O)NC(=O)NC2CCCCC2)cc1 ?
-0.115

* * *

Experiment: ovarian cancer cell viability with rucaparib, profiling panel, oncology-focused library, rucaparib conditional (AID 1508598)
Details: patient-derived ovarian cancer cells, CellTiter-Glo viability, 144 h; at 0.0781 µM; OCI-P5x cells; without rucaparib; stronger effect = lower value
valueKind: viability (%)
Your answer is read as %, so omit the unit and give the number.

| compound | unitLabel | viability |
| --- | --- | --- |
| N#Cc1c(O)c2c(-c3ccc(-c4ccccc4O)cc3)csc2[nH]c1=O | % | 115 |
| C[C@H](NC(=O)Cc1cc(F)cc(F)c1)C(=O)N[C@H](C(=O)OC(C)(C)C)c1ccccc1 | % | 101 |
| O=C(O)Cc1cccc(OCCCN(Cc2cccc(C(F)(F)F)c2Cl)CC(c2ccccc2)c2ccccc2)c1 | % | 103 |
| O=c1[nH]c(-c2ccc(C(F)(F)F)cc2)nc2c1CSCC2 | % | 105 |
| O=C1CN2Cc3c(ccc(Cl)c3Cl)N=C2N1 | % | 101 |
| CS(=O)c1ccc(-c2nc(-c3ccc(F)cc3)c(-c3ccncc3)[nH]2)cc1 (configuration not stated) | % | 112 |

Entry C[C@@H](N)C1CCC(C(=O)Nc2ccncc2)CC1 (some centres not stated) has what viability?
102

Try this compound next: NC(=O)Nc1sc(-c2ccc(F)cc2)cc1C(N)=O
98.9

* * *

Assay: inhibition of 3D7 malaria parasite growth – strain 3D7 (AID 2306);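 also: 0% = DMSO wells and 100% = chloroquine plus artemisinin control wells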
Conditions: P. falciparum 3D7 erythrocytic growth, LDH absorbance, 72 h; at 2 µM; stronger effect = higher value
# maps each entry to its growth inhibition
Use % as the unit, but write only the number.

| compound | growth inhibition (%) |
| --- | --- |
| CN1CCN(c2ccc3nc(-c4ccc5nc(-c6ccc([N+](=O)[O-])c(N)c6)[nH]c5c4)[nH]c3c2)CC1 | 100 |
| Cc1ccc(C(CC(=O)Nc2nccs2)c2ccc(OC(C)C)cc2)cc1 (stereo not given) | 94 |
| O=C(Nc1cccc(C(F)(F)F)c1)NC1CCN(c2ccnc3cc(Cl)ccc23)C1 (stereo not given) | 101 |
| Nc1nc(N)c2c3c(ccc2n1)NCCC3 | 97 |

Turning now to a further record.
growth inhibition for CC(C)(CN)c1nc(-c2ccc(Br)c(O)c2)c(-c2ccncc2)[nH]1 ?
96

* * *

Assay: modifiers of HSF1 nuclear foci, imaging, Selleck Cancer Library (AID 1347162)
Conditions: human cells, at 10 µM; measured here: HSF1 foci SSMD mean
valueKind: SSMD
Answer with a bare number; do not write a unit.

| compound | SSMD |
| --- | --- |
| CC(C)C[C@H](NC(=O)[C@@H](O)[C@H](N)Cc1ccccc1)C(=O)O | 2.45 |
| O=C(O)CCc1ccc(NCc2cccc(Oc3ccccc3)c2)cc1 | 3.5 |
| N#Cc1c(O)c2c(-c3ccc(-c4ccccc4O)cc3)csc2[nH]c1=O | 3.35 |
| O=c1cc(N2CCOCC2)oc2c(-c3ccccc3)cccc12 | 1.15 |
| CN(C)CCOc1ccc(/C(=C(/CCCl)c2ccccc2)c2ccccc2)cc1 | -11.1 |
| O=C1C(Cl)=C(NCCN2CCOCC2)C(=O)c2ncccc21 | 6.65 |
| CC(NC(=O)c1ccccc1N=Cc1c(O)ccc2ccccc12)c1ccccc1 (stereo unspecified) | 1.72 |
| N.N.O=C(O)C1(C(=O)O)CCC1.[Pt] | 2.09 |
| CCOc1ccc(Nc2nc(-c3c(C)nc4ccccn34)cs2)cc1 | 4.16 |
| Cn1cc(C2=C(c3ccc(Cl)cc3Cl)C(=O)NC2=O)c2ccccc21 | 1.42 |

SSMD for C[C@@H](N)C1CCC(C(=O)Nc2ccncc2)CC1 (stereo partly specified) ?
3.4

* * *

Test: HepG2 cytotoxicity, primary screen, cytotoxicity control for P. falciparum antimalarial project, cell-based, ATP luminescence (AID 2303);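 also: 0% = DMSO wells and 100% = digitonin-killed cells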
Settings: HepG2 viability, 24-48 h, at 10 µM, stronger effect = higher value
Each item that follows carries a reported inhibition.
Quick reminder: number only, in %, skip the unit.

Here's what some known entries look like.
| compound | inhibition / % |
| --- | --- |
| CCCC(C)NC(=O)[C@H](Cc1ccccc1)NC(=O)c1ccc(O)c(-c2ccc(OC)cc2)c1 (some centres undefined) | 12 |
| C[C@H](NC(=O)c1c(CN2CCC(NC(=O)CC(C)(C)C)CC2)c(-c2cccs2)nc2ccccc12)C1CCCCC1 | -3 |
| N#Cc1cccc(C(=O)Nc2cccc(-c3ccc(CN4CCC(O)CC4)cc3)c2)c1 | 15 |
| CC(C)Cc1csc(NC(=O)C=Cc2ccco2)c1C(=O)O | 4 |
| Fc1cccc(C=NNc2ccnc3ccc(C(F)(F)F)cc23)c1 | -2 |

Recorded inhibition for O=C(NCCCN1CCCCC1)c1cccc(Nc2nccc(Nc3ccc(Oc4ccccc4)cc3)n2)c1 , please?
47

Next entry: COc1ccc(C(=O)Nc2ccc(Cl)cc2C(=O)Nc2ccncc2)cc1
7

Now try CNC(=O)c1ccc(/C=C/C(=O)N2CCc3ccc(-c4ccccc4)cc3C2c2cccc(C(F)(F)F)c2)cc1 (centres undefined) .
9

Input CS(=O)(=O)Cc1ccc(Nc2nccc(N3CCCc4cc(NC(=O)Nc5cccc(C(F)(F)F)c5)ccc43)n2)cc1
46

* * *

In this section, each of the compounds is paired with its reported z-score.
Test: viability rescue of complex I mutant cybrids, primary screen, cell-based, galactose medium, ATP luminescence (AID 1645843);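 also: positive z means more ATP and so rescue of galactose-driven cybrid death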
Details: complex I mutant cybrid cells, 72 h, stronger effect = higher value
Activity calls are given as the source filed them.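 The calls were made as follows: active = z-score of at least 1.8 in each of two replicates, scored against plate mean and spread of sample wells; inactive = the rest.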

Solved cases below.
| compound | endpointValue |
| --- | --- |
| CC1=C(C(=O)O)N2C(=O)[C@@H](NC(=O)C(N)c3ccccc3)[C@H]2SC1 (stereo partly drawn) | 0.41 (inactive) |
| c1ccc(C2CN3CCSC3=N2)cc1 (stereo not drawn) | 0.64 (inactive) |
| CC(C)OC(=O)CCC/C=C\C[C@@H]1[C@@H](CC[C@@H](O)CCc2ccccc2)[C@H](O)C[C@@H]1O | 0.01 (inactive) |
| COc1ccc(C[C@H](C)NC[C@@H](O)c2ccc(O)c(NC=O)c2)cc1 | -0.475 (inactive) |
| COc1cc2nccc(Oc3ccc(NC(=O)Nc4ccc(F)cc4F)c(F)c3)c2cc1OC | -0.37 (inactive) |

The record that follows has no z-score shown yet.
Dear colleague, I am looking for the recorded z-score of the following compound: COc1cc([C@@H]2c3cc4c(cc3[C@@H](O[C@@H]3O[C@@H]5CO[C@@H](C)O[C@H]5[C@H](O)[C@H]3O)[C@H]3COC(=O)[C@H]23)OCO4)cc(OC)c1O
-2.08 (inactive)

* * *

Biological target: Single-stranded DNA-binding protein (Escherichia coli (strain K12)) (UniProt P0AGE0)
Test: E. coli SSB displacement from DNA, counter-screen for HCV NS3 helicase inhibitor project, biochemical, fluorescence polarization, NIH Clinical Collection (AID 743271)
Conditions: stronger effect = higher value, concentration not given here
Examples of compounds with documented inhibition follow.
Provide the reading as a plain figure in %.

| compound | inhibition / % |
| --- | --- |
| O=c1cnn([C@@H]2O[C@H](CO)[C@@H](O)[C@H]2O)c(=O)[nH]1 | -1.97 |
| CC(C(O)c1ccc(O)cc1)N1CCC(Cc2ccccc2)CC1 (stereo not drawn) | -4.72 |
| CC1c2cccc(O)c2C(O)=C2C(=O)[C@]3(O)C(O)=C(C(N)=O)C(=O)[C@@H](N(C)C)[C@@H]3C[C@@H]21 (stereo partly drawn) | 28.5 |
| CS(=O)(=O)c1ccc(-c2cc(Br)sc2-c2ccc(F)cc2)cc1 | 4.33 |
| CO[C@H]1/C=C/O[C@@]2(C)Oc3c(C)c(O)c4c(O)c(c(C=NN5CCN(C6CCCC6)CC5)c(O)c4c3C2=O)NC(=O)/C(C)=C\C=C\[C@H](C)[C@H](O)[C@@H](C)[C@@H](O)[C@@H](C)[C@H](OC(C)=O)[C@@H]1C | -0.48 |

Shift focus to the following entry.
Endpoint output: inhibition of CCC(CO)NCCNC(CC)CO (stereo not drawn) . Value?
-2

Reference source: PubChem BioAssay
